Assay: MTT cell viability assay, THP-1 cells
Format: cell-based
Conditions: human, unstimulated THP-1 cells, read-out: THP-1 Cytotoxicity CC50
Method: In order to assess the cytotoxicity of the compounds, an MTT cell viability assay was performed in either unstimulated THP-1 or HepG2 cells as follows. 5×10^4 THP-1 or 5×10^3 HepG2 cells were seeded into each well of a 96-well plate in 90 μL of media. […] Absorbance at 570 nm was measured using a Perkin-Elmer EnVision plate reader. Absorbance values were converted to percentage of vehicle-treated controls. […]
Each record here notes measured CC50 at 72 h.

compound: O=C(Nc1c2c(cc3c1CCC3)CCC2)NS(=O)(=O)c1ccc(B(O)O)cc1 [Example 13]
CC50 at 72 h: > 10 µM

compound: CC(CCB1O[C@@H]2C[C@@H]3C[C@@H](C3(C)C)[C@]2(C)O1)n1ccc(S(=O)(=O)NC(=O)Nc2c3c(cc4c2CCC4)CCC3)n1 (stereo partly shown) [Example 60]
CC50 at 72 h: > 10 µM

compound: O=C(Nc1c2c(cc3c1CCC3)CCC2)NS(=O)(=O)c1ccc(B(O)O)s1 [Example 12]
CC50 at 72 h: > 10 µM

compound: COc1cc(-c2ccc3c(c2NC(=O)NS(=O)(=O)c2ccc4c(c2)C(O)OB4O)CCC3)ccn1 (stereo not shown) [Example 53]
CC50 at 72 h: > 10 µM

compound: O=C(Nc1c2c(cc3c1CCC3)CCC2)NS(=O)(=O)c1ccc(O)c(CB(O)O)c1 [Example 38]
CC50 at 72 h: > 10 µM

compound: CC(C)c1cc(B2OC(C)(C)C(C)(C)O2)ccc1NC(=O)NS(=O)(=O)c1cnn(C(C)C)c1 [Example 18]
CC50 at 72 h: > 10 µM

compound: CC(C)(O)c1coc(S(=O)(=O)NC(=O)Nc2c3c(cc4c2CCC4)CCC3)c1 [MCC-950, reference compound]
CC50 at 72 h: > 10 µM
